Recorded IC50 in IL-17RA/IL7RC dimerization assay for the following binders
molecular target: IL-17A (agonist in the IL-17RA/IL17RC dimerization assay) (UniProt Q16552 24-155); assay: cell-based or functional assay
Sequence (Q16552 24-155 limits assumed): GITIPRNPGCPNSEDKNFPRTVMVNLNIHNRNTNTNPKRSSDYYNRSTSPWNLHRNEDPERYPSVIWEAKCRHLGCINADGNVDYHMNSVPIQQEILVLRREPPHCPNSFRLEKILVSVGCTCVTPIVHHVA

// below: answered binders
Ac-VPGAGVPGAGIHVTIPA-NH2 [peptide of SEQ ID NO: 157]	< 500 nM
Ac-VPGAGVMVTIPADLYEWIEE-NH2 [peptide of SEQ ID NO: 35]	< 1000 nM

Let's switch to this binder now.
query: Fill in IC50 in IL-17RA/IL7RC dimerization assay for record Ac-ARKKAAKAVMVTIPADLYEWIEE-NH2 [peptide of SEQ ID NO: 31]
result: < 1000 nM
